System: RPMI-8226
assay_explanation: NCI tumour cell line growth inhibition, 48 h
Activity calls are given as the source filed them. Cut-off read from the data, not from the text of the source: active = GI50 up to about 1.1 µM and inactive = higher.
Documented GI50 across a set of compounds

CCSc1nc2sc(C)c(C)c2c(=O)n1-c1ccc(C(=O)O)cc1
34.1 µM (inactive)

System RPMI-8226. Read-out GI50. Item Cc1nnc(N)nc1C/C=C/C(C)Sc1ccc(Cl)cc1 (stereo unspecified) . Report value.
> 21.7 µM (inactive)

System RPMI-8226. Read-out GI50. Item "COCCOCc1nc(C#N)c(N)o1" . Report value.
> 100 µM (inactive)

System RPMI-8226. Read-out GI50. Item CCOC(=O)CC1(c2cccc3ccccc23)OC(=O)c2ccccc21 (stereo unspecified) . Report value.
23.7 µM (inactive)

System RPMI-8226. Read-out GI50. Item "Cn1c(=O)c2nc(CCCCc3nc4ccccc4[nH]3)[nH]c2n(C)c1=O" . Report value.
> 100 µM (inactive)

System RPMI-8226. Read-out GI50. Item "C=CC1=C(C)c2cc3[nH]c(c4c5nc(cc6[nH]c(cc1n2)c(C)c6CC)C(C)=C5C(=O)[C@@H]4C(=O)OC)[C@@H](CCC(=O)O)[C@@H]3C" . Report value.
2 µM (inactive)

System RPMI-8226. Read-out GI50. Item "O=C1c2cnccc2Cc2cccc3c2N1c1ccccc1S3" . Report value.
20.6 µM (inactive)

System RPMI-8226. Read-out GI50. Item "Nc1ccc2c(c1)C(=O)c1c(F)cccc1-2" . Report value.
20.4 µM (inactive)

System RPMI-8226. Read-out GI50. Item "Cn1c2ccccc2c2c3c(=O)[nH][nH]c(=O)c3c3c4ccccc4n(C)c3c21" . Report value.
13.6 µM (inactive)

System RPMI-8226. Read-out GI50. Item "Cc1cccc(C)c1NC(=O)C(=O)CC(=O)CO" . Report value.
> 100 µM (inactive)

System RPMI-8226. Read-out GI50. Item "CCOC(=O)C(=O)Nc1ccc(Cl)c(C(F)(F)F)c1" . Report value.
> 100 µM (inactive)

* * *

System: MCF7
assay_explanation: NCI tumour cell line growth inhibition, 48 h
Activity calls are given as the source filed them. Rule as the data show it: active = GI50 up to about 1.1 µM and inactive = higher.
measured_metric: GI50

Below, each entry is followed by its recorded GI50 result.
COc1ccc(OC)c(-c2cc(=O)c3c(OC)c(OC)c(OC)c(OC)c3o2)c1
14.5 µM (inactive)
CCOC(=O)c1sc2nc(SC)nc3c2c1N=CN3c1ccccc1Cl
> 100 µM (inactive)
O=C1CSC(/C=C/c2ccccc2)N1c1ccc(-n2c(-c3ccccc3)nc3ccccc3c2=O)cc1 (configuration not stated)
52.2 µM (inactive)
O=C1C(O)=C(Cl)C(=O)c2c(O)ccc(O)c21
> 100 µM (inactive)
CCC(=O)NCC1CCCN2CCCCC12 (configuration not stated)
> 100 µM (inactive)
Cc1c2cccc-2c(OCCOC(=O)n2ccnc2)cc2c1[nH]c1ccccc12
3.24 µM (inactive)

System MCF7. Read-out GI50. Item O=C1NC(=O)C23C(=O)NC(=O)C12C1C=CC3CC1 (configuration not stated) . Report value.
> 10 µM (inactive)

System MCF7. Read-out GI50. Item "C=CC1=C(C)c2cc3[nH]c(c4c5nc(cc6[nH]c(cc1n2)c(C)c6CC)C(C)=C5C(=O)[C@@H]4C(=O)OC)[C@@H](CCC(=O)O)[C@@H]3C" . Report value.
2.98 µM (inactive)

System MCF7. Read-out GI50. Item "Brc1cccc(/C=C/CN2CCN(CCOC(c3ccccc3)c3ccccc3)CC2)c1" . Report value.
14.5 µM (inactive)

System MCF7. Read-out GI50. Item "COn1oc(=O)c2ccccc21" . Report value.
> 100 µM (inactive)

System MCF7. Read-out GI50. Item "CC(=O)Oc1ccc2c3c1O[C@H]1[C@H](O)CC[C@@]4(O)[C@@H](C2)N(C)CC[C@]314" . Report value.
> 100 µM (inactive)

System MCF7. Read-out GI50. Item Cc1ccc(S(=O)(=O)NC(=O)NC(CC(N)=O)C(=O)O)cc1 (configuration not stated) . Report value.
> 100 µM (inactive)

* * *

Test system: SW-620
assay_explanation: NCI tumour cell line growth inhibition, 48 h
Active and inactive are the calls of the source. Rule as the data show it: active = GI50 up to about 1.1 µM and inactive = higher.
Respond using exactly one of the listed classes: active, inactive

Illustrative cases are given below, each with its answer.
Cn1c(=O)c2c(nc3n(CC(O)CCl)c(=O)ccn23)n(C)c1=O (stereo unspecified)
inactive
COc1cc([C@@H]2c3cc4c(cc3[C@@H](NCc3ccc(C#N)cc3)C3COC(=O)[C@@H]32)OCO4)cc(OC)c1O (stereo partly specified)
active
NC(CCC(=O)Nc1ccc(O)cc1)C(=O)O (stereo unspecified)
inactive
Cn1c(=S)sc2nc3ccccc3n2c1=S
inactive
C/C=C/C/C=C/CCC(=O)C1OC1C(N)=O (stereo unspecified)
inactive

Hey, what did the test say about CC(C)c1ccc(/C=C2\CSCC3=C2N=C(S)NC3c2ccc(C(C)C)cc2)cc1 (stereo unspecified) ?
inactive

Hey, what did the test say about "Nc1cc(F)ccc1CC(=O)O" ?
inactive

Hey, what did the test say about CCOC(=O)N[C@@H]1C2CC(=O)C(O2)[C@@H]1OC (stereo partly specified) ?
inactive

Hey, what did the test say about "O=c1oc2ccc([N+](=O)[O-])cc2cc1Br" ?
inactive

Hey, what did the test say about Cc1cn(CCCCOC(=O)NC(CCCNC(=N)N)C(=O)O)c(=O)[nH]c1=O (stereo unspecified) ?
inactive

Hey, what did the test say about COc1ccc(C2(O)c3ccccc3C(=O)N(C)C2(O)c2ccc(OC)cc2)cc1 (stereo unspecified) ?
inactive

* * *

Tested on: MOLT-4
assay_explanation: NCI tumour cell line growth inhibition, 48 h
The source made the active and inactive calls. No stated cut-off is given here; in the data, active = GI50 up to about 1.1 µM and inactive = higher.
Respond using exactly one of the listed classes: 1 (active), 0 (inactive)

O=C(CSc1nnc(SCC(=O)NN=C2CCCCC2)s1)NN=C1CCCCC1
0
O=C(NCP(=O)(c1ccccc1)c1ccccc1)OCc1ccccc1
0
COc1cc(/C=C\c2ccc(SC)cc2)cc(OC)c1OC
1
COc1ccc(C[C@H]2COC(=O)[C@@H]2Cc2ccc(O)cc2)cc1OC
0

Hey, what did the test say about "COn1cc(C=O)c2ccccc21" ?
0

Hey, what did the test say about "COc1cnc2cc(C(=O)O)c3ccccc3c2c1" ?
0

Hey, what did the test say about "CCOC(=O)c1sc2nc(SC)nc3c2c1N=CN3c1ccccc1Cl" ?
0

Hey, what did the test say about COc1ccc(C2(O)c3ccccc3C(=O)N(C)C2(O)c2ccc(OC)cc2)cc1 (configuration not stated) ?
0

Hey, what did the test say about "COCN(C)c1nc(N(C)C)nc(N(C)C)n1" ?
0

Hey, what did the test say about "CCCCCCc1cc(C(=O)Nc2cccc(C(F)(F)F)c2)nc(N)n1" ?
0

* * *

System: ACHN
assay_explanation: NCI tumour cell line growth inhibition, 48 h
Active and inactive are the calls of the source. Rule as the data show it: active = GI50 up to about 1.1 µM and inactive = higher.
Respond using exactly one of the listed classes: active, inactive

Illustrative cases are given below, each with its answer.
CC(C)OC(=O)NCCn1cc(-c2ccccc2)nn1
inactive
Cc1[nH]c(-c2ccccc2)c(O)c1C(=O)OC1CC(C)CCC1C(C)C (stereo not given)
inactive
Nc1ccc2c(c1)C(=O)c1c(F)cccc1-2
inactive

Hey, what did the test say about "Cc1cc(C)c(C(=O)O)c(N)c1O" ?
inactive

Hey, what did the test say about "COc1ccc(/C(=N/N=c2\[nH]c3ccccc3n2Cc2ccccc2)C(=O)O)cc1" ?
inactive

Hey, what did the test say about COC(=O)C(=O)C1CCCCC(C2=NC3NN=C(N)N3C2=O)C1=O (stereo not given) ?
inactive

Hey, what did the test say about "C/C(=N/NC(=S)Nc1cccc(C)c1)c1ccccn1" ?
active

Hey, what did the test say about COC12CCC(=O)C=C1c1ccccc1N2C(C)=O (stereo not given) ?
inactive

Hey, what did the test say about "CCCCCCCCCc1cc(=O)c2ccc(O)cc2o1" ?
inactive

Hey, what did the test say about "COc1ccc(/C=C2/CCCC/C2=N/O)cc1" ?
inactive

Hey, what did the test say about COc1ccc(/C=c2\sc3n(c2=O)C(N)=C(C#N)C(c2ccc(OC)cc2)C=3c2nc3ccccc3[nH]2)cc1 (stereo not given) ?
inactive

Hey, what did the test say about "Nc1cc(F)ccc1CC(=O)O" ?
inactive

* * *

System: LOX IMVI
assay_explanation: NCI tumour cell line growth inhibition, 48 h
Activity calls are given as the source filed them. Rule as the data show it: active = GI50 up to about 1.1 µM and inactive = higher.
measured_metric: GI50

Below, each entry is followed by its recorded GI50 result.
CC(C)OC(=O)NCCn1cc(-c2ccccc2)nn1
> 100 µM (inactive)
COc1ccc(NC(=O)C(=O)Cc2nc3ccc(C(=O)c4ccccc4)cc3nc2O)c([N+](=O)[O-])c1
25.2 µM (inactive)

Fill in GI50 for record COC(=O)CN(CC1O[C@@H]2OC(C)(C)O[C@@H]2C1N=[N+]=[N-])C(=O)OCc1ccccc1 (some centres undefined)
> 100 µM (inactive)

Fill in GI50 for record "C=CC1=C(C)c2cc3[nH]c(c4c5nc(cc6[nH]c(cc1n2)c(C)c6CC)C(C)=C5C(=O)[C@@H]4C(=O)OC)[C@@H](CCC(=O)O)[C@@H]3C"
6.22 µM (inactive)

Fill in GI50 for record C[C@]12CCC[C@H](Cl)C1(O)C[C@H](C(=O)O)CC2 (some centres undefined)
> 100 µM (inactive)

Fill in GI50 for record CCOC(=O)C1C(=O)c2ccccc2CN1Cc1ccccc1 (centres undefined)
> 100 µM (inactive)

Fill in GI50 for record CCOc1ccc2nc(NC(=O)C(=O)C(c3cnc4ccccc4n3)[N+](=O)[O-])sc2c1 (centres undefined)
61 µM (inactive)

Fill in GI50 for record CCOC(=O)C1C(c2ccc3c(c2)OCO3)c2c(n[nH]c2O)CC1(C)O (centres undefined)
> 100 µM (inactive)

Fill in GI50 for record "CC(=O)Oc1cc(OC(C)=O)c2c(=O)c3ccccc3[nH]c2c1"
39.4 µM (inactive)
